This collection of values is drawn from the supplement of paper PMC9732359.

- assayText: protein stability index of a GFP-peptide fusion (yeast GPS) (PSI 1-4); higher = more stable; sorted into four equal gates, so the index is relative within each strain
- runConditions: ubr1∆
measuredAttribute: protein stability index
Give the value as a plain number.

Query: I'd like to know its protein stability index. The sequence in question is SNDLCSQIFDQLKDMQT [SRB8]
Reply: 2.71

Query: I'd like to know its protein stability index. The sequence in question is NIGTPSFNMAQIPQQLY [SNF5]
Reply: 2.04

Query: I'd like to know its protein stability index. The sequence in question is KRSDLTGANSIYSVEKK [UBP6]
Reply: 3.16

Query: I'd like to know its protein stability index. The sequence in question is DFREKALYIAMMTRRVV [RET1]
Reply: 1.37

Query: I'd like to know its protein stability index. The sequence in question is RLQAKRLKDVEWVKLHR [RMP1]
Reply: 2.03

Query: I'd like to know its protein stability index. The sequence in question is DFIKFDQIAVCEISGSI [BRN1]
Reply: 2.82

Query: I'd like to know its protein stability index. The sequence in question is NKLNFIVDDKQEMIDIL [DIB1]
Reply: 3

Query: I'd like to know its protein stability index. The sequence in question is ESEYREFESELKNVEET [ESC2]
Reply: 3.31

Query: I'd like to know its protein stability index. The sequence in question is AKALESLASCLRSTEYS [POP1]
Reply: 2.61

Query: I'd like to know its protein stability index. The sequence in question is AKKQNRPLPQWIRLRTN [RPL39]
Reply: 2.44

Query: I'd like to know its protein stability index. The sequence in question is YNNNTIRKLLEKINRMI [CSI1]
Reply: 3.1

Query: I'd like to know its protein stability index. The sequence in question is GTGLFGQQTAQPQQSTI [YGR119C/NUP57]
Reply: 3.19

Query: I'd like to know its protein stability index. The sequence in question is NKQPRNESFNRRISSMP [YAR002W/NUP60]
Reply: 2.99

Query: I'd like to know its protein stability index. The sequence in question is AKETHTKPSETPATIVK [YOR098C/NUP1]
Reply: 3.12

Query: I'd like to know its protein stability index. The sequence in question is TRNSLGNVIQFIYGEDG [RPO21]
Reply: 3.28

Query: I'd like to know its protein stability index. The sequence in question is KAGGECITLDQLAVRAP [RPL18A]
Reply: 2.57

Query: I'd like to know its protein stability index. The sequence in question is GKKASLNVGNVLPLGSV [RPL2A]
Reply: 2.56

Query: I'd like to know its protein stability index. The sequence in question is SASFSLKNGDKPHMLKF [RPL6A]
Reply: 3.13

Query: I'd like to know its protein stability index. The sequence in question is IGGLLSKVREEVGDVCI [RPO31]
Reply: 2.79

Query: I'd like to know its protein stability index. The sequence in question is RKYEISFGKIYVTKPMV [RPB2]
Reply: 2.16

Query: I'd like to know its protein stability index. The sequence in question is SNKPIFLFAPELGAINL [SWI1]
Reply: 2.11

Query: I'd like to know its protein stability index. The sequence in question is LSNIEAQFLRSVVHPGE [RPO21]
Reply: 2.97

Query: I'd like to know its protein stability index. The sequence in question is ENAYDNPLADAEEALEP [PRE4]
Reply: 3.13

Query: I'd like to know its protein stability index. The sequence in question is MTVKLESITYQKIMILQ [RGR1]
Reply: 2.56

Query: I'd like to know its protein stability index. The sequence in question is QRIIKELSIRFPQYKLT [ARP7]
Reply: 1.7

Query: I'd like to know its protein stability index. The sequence in question is LLKKKDDPSKVRLLCRS [YLR335W/NUP2]
Reply: 2.61

Query: I'd like to know its protein stability index. The sequence in question is TKSSKEFFNTLRKSRET [RRI2]
Reply: 2.92

Query: I'd like to know its protein stability index. The sequence in question is ISTPIINAVLVNDNDER [RPO31]
Reply: 2.21

Query: I'd like to know its protein stability index. The sequence in question is CYFRDFEYCRIDGSTSH [ISW2]
Reply: 1.88

Query: I'd like to know its protein stability index. The sequence in question is STPYLEILVEESGLRPV [PCI8]
Reply: 2.17

Query: I'd like to know its protein stability index. The sequence in question is FGNSLICEDPETAKKIT [SMC2]
Reply: 2.91

Query: I'd like to know its protein stability index. The sequence in question is IKIEDFVDDMLRDYRFE [SNF5]
Reply: 2.97

Query: I'd like to know its protein stability index. The sequence in question is RENIAMLKRFFPGVKGL [SMC1]
Reply: 2.43

Query: I'd like to know its protein stability index. The sequence in question is NHPELQGITRNVVNYLS [RPC17]
Reply: 2.47

Query: I'd like to know its protein stability index. The sequence in question is SFATATCVTCHWNLPGE [SIR2]
Reply: 1.92

Query: I'd like to know its protein stability index. The sequence in question is SYANHLEESDVEDTLHV [YOR098C/NUP1]
Reply: 1.97

Query: I'd like to know its protein stability index. The sequence in question is EKAKSAGTQSSKFSKQQ [RPL24A]
Reply: 3.12

Query: I'd like to know its protein stability index. The sequence in question is IWNDVVYGEGTSRVTGI [YJL039C/NUP192]
Reply: 3.45

Query: I'd like to know its protein stability index. The sequence in question is ASYAKYLIDHIKVEGAV [RPL22A]
Reply: 3.23

Query: I'd like to know its protein stability index. The sequence in question is TESLRVENSVLIEKVDD [YIL149C/MLP2]
Reply: 2.79

Query: I'd like to know its protein stability index. The sequence in question is SLVIIILVKRYSIEMKP [ECM29]
Reply: 2.04

Query: I'd like to know its protein stability index. The sequence in question is EGSWDRGIPRISTLFQR [PRP8]
Reply: 3.06

Query: I'd like to know its protein stability index. The sequence in question is QIQQQQQKQQQQQQQHQ [SNF5]
Reply: 2.61

Query: I'd like to know its protein stability index. The sequence in question is EPPAGVALPPGSNYNPY [CYT1]
Reply: 3.15

Query: I'd like to know its protein stability index. The sequence in question is GGRMFAPTKTWRKWNVK [RPL4A]
Reply: 2.16

Query: I'd like to know its protein stability index. The sequence in question is ELGEKKNEKLKFQETLL [ISW2]
Reply: 2.88

Query: I'd like to know its protein stability index. The sequence in question is LFWKVKEEEGSFNNVIG [PRE2]
Reply: 3.2

Query: I'd like to know its protein stability index. The sequence in question is VPGPGTKLIQYEHNGRT [CSL4]
Reply: 3.09

Query: I'd like to know its protein stability index. The sequence in question is DTFYMNVESVGSIPVDQ [RPB3]
Reply: 2.2

Query: I'd like to know its protein stability index. The sequence in question is EDDEFEDFPIDTWANGE [SEM1]
Reply: 3.03

Query: I'd like to know its protein stability index. The sequence in question is AILQKSLKNVTEKNREI [YIL149C/MLP2]
Reply: 2.96

Query: I'd like to know its protein stability index. The sequence in question is FESLPLKSAENSGKQQY [SWP82]
Reply: 3.2

Query: I'd like to know its protein stability index. The sequence in question is RALSIFSPDGHIFQVEY [PRE6]
Reply: 3.1

Query: I'd like to know its protein stability index. The sequence in question is KREGKTRLLNIVMQLRK [ISW2]
Reply: 2.97

Query: I'd like to know its protein stability index. The sequence in question is TVRKSIACVLTVINEQQ [RPL35A]
Reply: 2.11

Query: I'd like to know its protein stability index. The sequence in question is KKVVIVKPHDEGSKSHP [RPL27A]
Reply: 3.04

Query: I'd like to know its protein stability index. The sequence in question is IDIDKLIQLGVKPLESS [SRP72]
Reply: 2.82

Query: I'd like to know its protein stability index. The sequence in question is SGGNNTATIINNESSDD [PCI8]
Reply: 3.17

Query: I'd like to know its protein stability index. The sequence in question is LQVADKFFRVKYENKIS [SMC3]
Reply: 1.52

Query: I'd like to know its protein stability index. The sequence in question is CVRVQLIKNGKKVTAFV [RPS23A]
Reply: 3.13
